Data provenance is ChEMBL document CHEMBL1201862.

- Test system: RPMI-8226
- PROTOCOL_TEXT: NCI tumour cell line growth inhibition, 48 h
Activity calls are given as the source filed them. Rule as the data show it: active = GI50 up to about 1.1 µM and inactive = higher.
VALUE_KIND: GI50

Report GI50 for `CC1=C(C(=O)NNS(=O)(=O)c2ccc(C)cc2)CC(C(=O)NNS(=O)(=O)c2ccc(C)cc2)=C(C)N1` please. 36.2 µM (inactive)

Form field: reported GI50 of COc1cc(S(=O)(=O)Nc2ccc(-c3csc(N4C(=O)C(Cl)C4c4cccs4)n3)cc2)ccc1Cl (stereo not given) 26.9 µM (inactive)

Look at this compound and give its reported GI50. `O=C(O)c1ccc2[nH]c(=O)oc2c1` > 100 µM (inactive)

What value of measured GI50 is listed for `BrC(Br)([P+](c1ccccc1)(c1ccccc1)c1ccccc1)[P+](c1ccccc1)(c1ccccc1)c1ccccc1` ? 6.87 µM (inactive)

Return reported GI50; argument: CC(=O)OC1COC(n2c3ccccc3c3ccc4c5ccccc5[nH]c4c32)C(OC(C)=O)C1OC(C)=O (stereo not given) 95.7 µM (inactive)

----------
- Test system: SK-MEL-2
- PROTOCOL_TEXT: NCI tumour cell line growth inhibition, 48 h
Calls of active or inactive are those of the source. No stated cut-off is given here; in the data, active = GI50 up to about 1.1 µM and inactive = higher.
Just give me one of these, please: 1.0 = active, 0.0 = inactive

Test call for this compound, please: CC(C)C1CCC(=O)CC1CCCCC1CC(=O)CC1O[Si](C)(C)C(C)(C)C (stereo not given) 0.0

Tell me the assay call for `COc1ccc(-n2c(N)c(C#N)c(C#N)c2-c2ccco2)cc1` please. 0.0

Hi team, can someone confirm the assay call for CN(Cc1cnc2nc(N)nc(N)c2n1)c1ccc(C(=O)NC(CCC(=O)NCC(P(=O)(O)O)P(=O)(O)O)C(=O)O)cc1 (stereo not given) ? 0.0

Identify the outcome logged in this assay for the compound shown: `CC(C)C1=Cc2ccc3c(c2C(=O)C1=O)CCCC3(C)C` 0.0

GET /call?item= `Cc1cc(=O)oc2cc(OCc3c(F)cccc3Cl)ccc12` returns the recorded outcome of this test. 0.0

Tell me the assay call for O=C1OC(/C=C/c2ccccc2)C(=O)C1=O (stereo not given) please. 0.0

What is the recorded call for this compound in the test? CC1[C@@]2(CCC(C)(C)O2)O[C@@H]2C=C3C4CCC5Cc6nc7c(nc6C[C@@]5(C)C4C[C@H](O)[C@@]3(C)[C@]12O)CC1CCC2C3=C[C@H]4O[C@@]5(O[C@@](C)(CO)C[C@@H]5O)C(C)[C@@]4(O)[C@]3(C)[C@@H](O)CC2[C@]1(C)C7 (stereo not given in full) 1.0

Just curious, what result did `CC(C)=CCC[C@@H](C)C1=C(Nc2ccccc2Cl)C(=O)C(C)=C(O)C1=O` get here? 0.0

Per the records of this test, what outcome belongs to N#CC12CC3(CCC1CCC1(C2)OCCO1)OCCO3 (stereo not given) ? 0.0

// param item: CNC(=S)N/N=C1\CC(c2ccccc2)Oc2ccccc21 (stereo not given) ; yields the recorded call 0.0

Call for entry COc1ccc(C2C3=C(COC3=O)Oc3cc4c(cc32)OCO4)cc1 (stereo not given) : 0.0

Please share the test call associated with CC(C)=CCC/C(C)=C/CC/C(C)=C/CC/C=C(\C)CC/C=C(\C)CCC1SC1(C)C (stereo not given) . 0.0

Just curious, what result did `O=C1CC(=O)N(C2CCCCC2)C(=O)N1c1ccccc1S(=O)(=O)Oc1ccccc1` get here? 0.0

Each compound tested received a call. Report the one for `COc1cc(/C=C/C(=O)O)ccc1C(=O)O/C=C/c1ccccc1` . 0.0

Record request — test call for `Clc1ccc(Nc2nnc(CCCCCCCCc3nnc(Nc4ccc(Cl)cc4)o3)o2)cc1` 0.0

Assay outcome for `O=C1CCCC2=C1CC1=C(CCCC1=O)N2c1ccc(-c2ccccc2)cc1` : what was it? 0.0

Fill in: this test's call for CC1(C)CCC(Sc2ccccc2)O1 (stereo not given) is ___ 0.0

Hey, what did the test say about `N#CC(C#N)=Cc1ccc(CP(=O)(O)O)cc1` ? 0.0

State the result this test recorded for O=C1c2ccccc2NC2C(O)c3ccccc3N12 (stereo not given) . 0.0

Which result was noted for this compound in the test: C=CCC1(CN(C)C)CC/C(=C\c2cc(OC)c(OC)c(OC)c2)C1=O (stereo not given) 0.0

----------
- Tested on: SK-MEL-28
- PROTOCOL_TEXT: NCI tumour cell line growth inhibition, 48 h
Activity calls are given as the source filed them. Cut-off read from the data, not from the text of the source: active = GI50 up to about 1.1 µM and inactive = higher.
Could you please report measured GI50 for the items listed next?

Recorded GI50 of `C[N+]1(C)CC=C(N2CCOCC2)CC1` , please. > 10 µM (inactive)

State the recorded GI50 for this entry: CC(=O)C(CN(CC(C)C)CC(C)C)C(c1ccccc1)c1c(O)c2ccccc2oc1=O (stereo not given) > 100 µM (inactive)

Need GI50 of [BH3-][P+]1(CC[P@@+]([BH3-])(c2ccccc2)c2ccccc2OC)[C@@H](C)[C@@H](O)[C@H](O)[C@@H]1C (stereo not given in full) , thanks. 17.9 µM (inactive)

What measured GI50 goes with N#CC12Cc3cc4c(cc3-c3cccc(c31)CCN2C(=O)c1ccccc1)OCO4 (stereo not given) ? > 100 µM (inactive)

Bench note: what GI50 did C#CCOCC12C=CC(O1)C1COC(=O)C12 (stereo not given) show? > 100 µM (inactive)

----------
- System: SR
- PROTOCOL_TEXT: NCI tumour cell line growth inhibition, 48 h
The source made the active and inactive calls. Rule as the data show it: active = GI50 up to about 1.1 µM and inactive = higher.
VALUE_KIND: GI50

Requested read-out: GI50. Entry: O=C(CC(C(=O)c1ccco1)c1ccsc1)c1ccco1 (stereo not drawn) 67.8 µM (inactive)

Field request: GI50 | item: `O=CN/C=C\c1cc(O)ccc1O` 3.91 µM (inactive)

Tell me the measured GI50 of `NC(=O)/C(=C\c1ccncc1)c1cccc2ccccc12` , please. 53.3 µM (inactive)

So what's the measured GI50 for this one? OCC(CO)CC1COc2ccccc2O1 (stereo not drawn) > 10 µM (inactive)

Which GI50 is reported for this compound? CC1CC(=O)N(N(C)C)C2(C#N)C(=O)N=C(N)C12C#N (stereo not drawn) > 100 µM (inactive)

Form field: reported GI50 of `O=c1[nH]c(=O)n(COCCOCc2ccccc2)cc1Nc1ccccc1` > 100 µM (inactive)

Record request: GI50 value, item CC(C)C1OC(=O)/C=C/C=C/C=C/C=C/C=C/CC(O)C(C)C(O)CC(O)CC(O)CC(O)CC(O)CC(O)CC(O)/C=C/C1C (stereo not drawn) > 100 µM (inactive)

Find the recorded GI50 belonging to `COc1ccc2oc(=O)c(-c3nc4ccccc4o3)cc2c1` and report it. 5.25 µM (inactive)

----------
- Test system: 786-0
- PROTOCOL_TEXT: NCI tumour cell line growth inhibition, 48 h
Activity calls are given as the source filed them. No stated cut-off is given here; in the data, active = GI50 up to about 1.1 µM and inactive = higher.
Permitted responses: TRUE (active), FALSE (inactive)

Could you please tell me the result logged for `COC(=O)/C(=C\Nc1cccc(C)n1)S(=O)(=O)c1ccc(C)cc1` in this assay? FALSE

Per the records of this test, what outcome belongs to CCCCCCCCCCC[N+]1(Cc2ccccc2)CC2CCN(Cc3ccccc3)CC2C1 (centres undefined) ? TRUE

Query: recorded result category for `COc1ccc(NC(=O)CC/C(CC(=O)c2ccco2)=N/Nc2ccc([N+](=O)[O-])cc2[N+](=O)[O-])cc1` in this test FALSE

Test call for this compound, please: `Cc1nc(O)nc(N(CCO)/N=C/c2ccc(Cl)cc2)c1C(=O)Nc1ccc(Cl)cc1` FALSE

# fetch the recorded call for COc1cc2c[n+]3c4c(c2c(OC)c1OC)CCCC4CC3 (centres undefined) here FALSE

Which result was noted for this compound in the test: O=C1O[B-](c2ccccc2)(c2ccccc2)[NH+]2CCCC12 (centres undefined) FALSE

// param item: `CCCCCCCCCCCCCCCCOC(=O)C(C(=O)OCCCCCCCCCCCCCCCC)[N+](C)(C)CCOC(C)=O` ; yields the recorded call FALSE

What is the recorded call for this compound in the test? COc1cc(S(=O)(=O)Nc2ccc(-c3csc(N4C(=O)C(Cl)C4c4cccs4)n3)cc2)ccc1Cl (centres undefined) FALSE

Identify the outcome logged in this assay for the compound shown: COc1ccc(C2NC(c3ccc(OC)cc3)C(C)C(=O)C2C)cc1 (centres undefined) FALSE

----------
- System: MOLT-4
- PROTOCOL_TEXT: NCI tumour cell line growth inhibition, 48 h
Activity calls are given as the source filed them. No stated cut-off is given here; in the data, active = GI50 up to about 1.1 µM and inactive = higher.
VALUE_KIND: GI50

Return GI50 measured with MOLT-4 given this compound: `COCCCCCC(=O)CP(=O)(OC)OC` > 100 µM (inactive)

So what GI50 did `COc1ccc2oc(=O)c(-c3nc4ccccc4o3)cc2c1` get with MOLT-4? > 100 µM (inactive)

Given the entry `O=C1Oc2ccccc2C(=O)/C1=C/NC(=S)NCc1ccccc1` , what GI50 was observed with MOLT-4? 54.3 µM (inactive)

Give the reported GI50 for `CC1(C)OC(=O)C(Cc2ccccc2)(Cc2ccccc2)C(=O)O1` (system: MOLT-4). > 100 µM (inactive)
